target: hsTEAD1 (209-426) (Homo sapiens (Human)); assay: Thermal shift measurement / Differential Scanning Fluorimetry (DSF); format: binding; conditions: 100 uM compound, 2 hours at 4° C., triplicates; read-out: ΔTm TEAD1 (209-426)
Sequence (P28347 209-426): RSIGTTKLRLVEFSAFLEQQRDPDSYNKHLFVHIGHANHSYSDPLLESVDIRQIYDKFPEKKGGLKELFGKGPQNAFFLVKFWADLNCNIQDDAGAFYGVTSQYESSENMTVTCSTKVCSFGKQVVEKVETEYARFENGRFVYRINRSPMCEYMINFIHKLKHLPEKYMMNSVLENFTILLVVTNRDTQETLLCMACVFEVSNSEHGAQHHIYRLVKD
Readout type: ΔTm at 100 µM (°C)

Below: 5 compounds and their reported ΔTm at 100 µM.
- Compound: "Cn1cc2c3cc(C(=O)NCCOCCOCCNC(=O)CCCCCCNc4cccc5c4C(=O)N(C4CCC(=O)NC4=O)C5=O)ccc3n(-c3ccc(C(F)(F)F)cc3)c2n1 (stereo not shown)"
  ΔTm at 100 µM [°C]: -1.1
- Compound: "Cn1cc2c3cc(C(=O)NCCOCCOCCNC(=O)COCCOCCOCC(=O)Nc4cccc5c4C(=O)N(C4CCC(=O)NC4=O)C5=O)ccc3n(-c3ccc(C(F)(F)F)cc3)c2n1 (stereo not shown)"
  ΔTm at 100 µM [°C]: 4.1
- Compound: "Cc1ncsc1-c1ccc(CNC(=O)[C@H]2C[C@H](O)CN2C(=O)[C@H](NC(=O)COCCOCCOCCOCCOCCNC(=O)c2ccc3c(c2)c2cn(C)nc2n3-c2ccc(C(F)(F)F)cc2)C(C)(C)C)cc1"
  ΔTm at 100 µM [°C]: 4.5
- Compound: "Cn1cc2c3cc(C(=O)NCCOCCOCCNC(=O)COc4cccc5c4C(=O)N(C4CCC(=O)NC4=O)C5=O)ccc3n(-c3ccc(C(F)(F)F)cc3)c2n1 (stereo not shown)"
  ΔTm at 100 µM [°C]: 3.9
- Compound: "Cc1ncsc1-c1ccc(CNC(=O)[C@@H]2C[C@@H](O)CN2C(=O)[C@@H](NC(=O)COCCOCCOCCOCC(=O)NCCOCCOCCNC(=O)c2ccc3c(c2)c2cn(C)nc2n3-c2ccc(C(F)(F)F)cc2)C(C)(C)C)cc1"
  ΔTm at 100 µM [°C]: 3.4

[a] Cn1cc2c3cc(C(=O)NCCOCCOCCNC(=O)COCCOCCOCCOCCOCC(=O)Nc4cccc5c4C(=O)N(C4CCC(=O)NC4=O)C5=O)ccc3n(-c3ccc(C(F)(F)F)cc3)c2n1 (stereo not shown)
[b] Cc1ncsc1-c1ccc(CNC(=O)[C@@H]2C[C@@H](O)CN2C(=O)[C@@H](NC(=O)CCCCCC(=O)NCCOCCOCCNC(=O)c2ccc3c(c2)c2cn(C)nc2n3-c2ccc(C(F)(F)F)cc2)C(C)(C)C)cc1
Compare the recorded ΔTm at 100 µM of a and b ; state which is larger. Your choice should be expressed through its label.
a
